Cited source for all entries: patent US10508103B2

biological target: XIAP-BIR3 Protein (Homo sapiens (Human)); test: Fluorescence polarization affinity of compounds to XIAP-BIR3; details: XIAP-BIR3 30 nM; 5 nM ARPFAQ-K(5-FAM)-NH2 probe; FP; pH 7.5; read-out: affinity to target protein in vitro, XIAP-BIR3 Protein (IC50)
Sequence (P98170 241-356): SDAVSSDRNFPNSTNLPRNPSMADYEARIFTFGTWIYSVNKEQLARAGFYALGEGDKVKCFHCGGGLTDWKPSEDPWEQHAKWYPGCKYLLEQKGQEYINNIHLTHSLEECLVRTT
ENDPOINT_LABEL: IC50

Consider the reported IC50 for these compounds:
Need IC50 of CN[C@@H](C)C(=O)N[C@H](C(=O)N1CC(F)(F)C[C@H]1Cc1c(-c2nc3cc(F)ccc3n2C[C@@H]2CC(F)(F)CN2C(=O)[C@@H](NC(=O)[C@H](C)NC)C2CC2)[nH]c2cc(F)ccc12)C1CC1 , thanks.
< 10 nM

Which value of IC50 has been reported for CC[C@H](NC(=O)[C@H](C)NC)C(=O)N1CCC[C@H]1Cn1c(-c2[nH]c3cc(F)ccc3c2C[C@@H]2C[C@H](F)CN2C(=O)[C@@H](NC(=O)[C@H](C)NC)C(C)(C)C)nc2cc(F)ccc21 in the records?
< 10 nM

Which IC50 is reported for this compound? CN[C@@H](C)C(=O)N[C@H](C(=O)N1C[C@@H](F)C[C@H]1Cn1c(-c2[nH]c3cc(F)ccc3c2C[C@@H]2C[C@H](F)CN2C(=O)[C@@H](NC(=O)[C@H](C)NC)C(C)(C)C)nc2cc(F)ccc21)C1CC1
10 to 100 nM

Dear colleague, I am looking for the recorded IC50 of the following compound: CC[C@H](NC(=O)[C@H](C)NC)C(=O)N1C[C@@H](F)C[C@H]1Cn1c(-c2[nH]c3cc(F)ccc3c2C[C@@H]2C[C@H](F)CN2C(=O)[C@@H](NC(=O)[C@H](C)NC)C(C)C)nc2cc(F)ccc21
10 to 100 nM

Name the recorded IC50 for CC[C@H](NC(=O)[C@H](C)NC)C(=O)N1CC(F)(F)C[C@H]1Cc1c(-c2nc3cc(F)ccc3n2C[C@@H]2CC(F)(F)CN2C(=O)[C@H](CC)NC(=O)[C@H](C)NC)[nH]c2cc(F)ccc12 .
10 to 100 nM

For CN[C@@H](C)C(=O)N[C@H](C(=O)N1C[C@@H](F)C[C@H]1Cc1c(-c2nc3cc(F)ccc3n2C[C@@H]2C[C@H](F)CN2C(=O)[C@@H](NC(=O)[C@H](C)NC)C2CC2)[nH]c2cc(F)ccc12)C(C)C , what is its reported IC50?
10 to 100 nM

Continuing:
Given the compound CC[C@H](NC(=O)[C@H](C)NC)C(=O)N1C[C@@H](F)C[C@H]1Cn1c(-c2[nH]c3cc(F)ccc3c2C[C@@H]2C[C@H](F)CN2C(=O)[C@@H](NC(=O)[C@H](C)NC)C(C)(C)C)nc2cc(F)ccc21 , what is its reported IC50?
< 10 nM

GET /values?readout=IC50&item= CC[C@H](NC(=O)[C@H](C)NC)C(=O)N1C[C@@H](F)C[C@H]1Cn1c(-c2[nH]c3cc(F)ccc3c2C[C@@H]2C[C@H](F)CN2C(=O)[C@@H](NC(=O)[C@H](C)NC)C2CC2)nc2cc(F)ccc21
10 to 100 nM

Can you share its IC50? I mean this compound: CN[C@@H](C)C(=O)N[C@H](C(=O)N1C[C@@H](F)C[C@H]1Cc1c(-c2nc3cc(F)ccc3n2C[C@@H]2C[C@H](F)CN2C(=O)[C@@H](NC(=O)[C@H](C)NC)C2CC2)[nH]c2cc(F)ccc12)C1CC1
10 to 100 nM
